These data points were gathered from ChEMBL document CHEMBL5154726.

EXPERIMENT SUMMARY: Half life in Sprague-Dawley rat at 5 mg/kg, iv measured up to 24 hrs by LC-MS/MS analysis
Format: ADME, organism-based
PARTICULARS: in vivo
READOUT TYPE: half-life
A bare number is not enough; add the unit after it.

Q: Which measured half-life value corresponds to Brc1ccc(-c2nc3ccc(Br)cn3n2)cc1 ?
A: 48.6 min

###

TARGET OR TEST SYSTEM: Cytochrome P450 3A4 (Homo sapiens)
Sequence (P08684 whole entry): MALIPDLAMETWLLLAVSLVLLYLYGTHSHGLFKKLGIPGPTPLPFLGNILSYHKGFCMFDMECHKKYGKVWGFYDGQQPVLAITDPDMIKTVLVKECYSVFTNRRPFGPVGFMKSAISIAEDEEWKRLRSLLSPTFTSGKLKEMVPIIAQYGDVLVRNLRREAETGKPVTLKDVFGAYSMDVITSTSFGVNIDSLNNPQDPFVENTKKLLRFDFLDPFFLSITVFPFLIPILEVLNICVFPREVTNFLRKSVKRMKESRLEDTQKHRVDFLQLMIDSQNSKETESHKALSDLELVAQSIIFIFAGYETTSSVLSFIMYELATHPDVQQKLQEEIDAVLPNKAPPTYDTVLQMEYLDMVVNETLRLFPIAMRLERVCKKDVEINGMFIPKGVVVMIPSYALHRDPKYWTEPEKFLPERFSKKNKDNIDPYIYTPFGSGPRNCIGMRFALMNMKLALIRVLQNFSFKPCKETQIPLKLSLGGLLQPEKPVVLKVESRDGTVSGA
READOUT TYPE: IC50

Q: Under Cytochrome P450 3A4 (Homo sapiens): IC50 value of Brc1ccc(-c2nc3ccc(Br)cn3n2)cc1 ?
A: > 10 µM

###

TARGET OR TEST SYSTEM: Aryl hydrocarbon receptor (Homo sapiens)
Sequence (P35869 whole entry): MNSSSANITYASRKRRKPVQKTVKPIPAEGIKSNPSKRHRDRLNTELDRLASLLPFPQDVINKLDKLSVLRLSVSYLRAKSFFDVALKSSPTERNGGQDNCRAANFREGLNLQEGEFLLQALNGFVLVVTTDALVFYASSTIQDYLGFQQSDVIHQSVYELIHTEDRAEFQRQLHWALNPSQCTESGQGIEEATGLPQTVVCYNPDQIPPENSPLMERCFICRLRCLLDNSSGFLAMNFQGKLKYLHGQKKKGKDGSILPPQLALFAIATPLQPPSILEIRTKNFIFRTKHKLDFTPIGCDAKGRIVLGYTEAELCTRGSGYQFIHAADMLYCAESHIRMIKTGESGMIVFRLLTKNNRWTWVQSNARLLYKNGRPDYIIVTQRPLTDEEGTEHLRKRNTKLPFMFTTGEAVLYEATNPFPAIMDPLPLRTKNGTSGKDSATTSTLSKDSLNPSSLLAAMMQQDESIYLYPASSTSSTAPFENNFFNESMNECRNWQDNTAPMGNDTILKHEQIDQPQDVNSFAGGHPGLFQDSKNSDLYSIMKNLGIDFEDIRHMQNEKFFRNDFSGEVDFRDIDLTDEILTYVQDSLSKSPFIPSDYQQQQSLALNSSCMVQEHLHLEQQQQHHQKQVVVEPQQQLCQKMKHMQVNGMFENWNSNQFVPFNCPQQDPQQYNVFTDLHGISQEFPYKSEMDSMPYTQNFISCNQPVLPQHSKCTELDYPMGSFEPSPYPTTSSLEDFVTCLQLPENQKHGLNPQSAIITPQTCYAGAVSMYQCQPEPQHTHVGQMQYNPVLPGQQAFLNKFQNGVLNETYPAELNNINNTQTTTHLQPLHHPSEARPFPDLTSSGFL
EXPERIMENT SUMMARY: Agonist activity at AhR in human recombinant HepG2-Lucia AhR cell incubated for 24 hrs by luciferase reporter gene assay
// NB: equality with 0.08 µM counts as false (0); only EC50 strictly below is true (1)

Below, 5 compounds whose answers are already recorded.
MOL SMILES: [O-][n+]1c(-c2ccc(Br)cc2)nc2ccc(F)cn21
TARGET OR TEST SYSTEM: Aryl hydrocarbon receptor (Homo sapiens)
ANSWER LABEL: false (0)
//
MOL SMILES: COC(=O)c1ccc(-c2nc3ccccn3[n+]2[O-])cc1
TARGET OR TEST SYSTEM: Aryl hydrocarbon receptor (Homo sapiens)
ANSWER LABEL: false (0)
//
MOL SMILES: N#Cc1ccc2nc(-c3ccc(Br)cc3)nn2c1
TARGET OR TEST SYSTEM: Aryl hydrocarbon receptor (Homo sapiens)
ANSWER LABEL: true (1)
//
MOL SMILES: N#Cc1ccc2nc(-c3ccc(Br)cc3)[n+]([O-])n2c1
TARGET OR TEST SYSTEM: Aryl hydrocarbon receptor (Homo sapiens)
ANSWER LABEL: true (1)
//
MOL SMILES: FC(F)(F)c1ccc(-c2nc3ccc(Br)cn3n2)cc1
TARGET OR TEST SYSTEM: Aryl hydrocarbon receptor (Homo sapiens)
ANSWER LABEL: true (1)

Q: Lab log: compare recorded EC50 with 0.08 µM; is it strictly lower for Cc1ccc2nc(-c3ccc(Br)cc3)[n+]([O-])n2c1 ?
A: false (0)

Q: Lab log: compare recorded EC50 with 0.08 µM; is it strictly lower for Brc1ccc2nc(-c3ccccc3Br)nn2c1 ?
A: false (0)

Q: Lab log: compare recorded EC50 with 0.08 µM; is it strictly lower for Brc1ccc(-c2nc3c(Br)cccn3n2)cc1 ?
A: false (0)

Q: Lab log: compare recorded EC50 with 0.08 µM; is it strictly lower for Clc1ccc(-c2nc3ccc(Br)cn3n2)cc1 ?
A: true (1)

Q: Lab log: compare recorded EC50 with 0.08 µM; is it strictly lower for Fc1ccc(-c2nc3ccc(Br)cn3n2)cc1 ?
A: false (0)

Q: Lab log: compare recorded EC50 with 0.08 µM; is it strictly lower for [O-][n+]1c(-c2ccc(Br)cc2)nc2cc(Cl)ccn21 ?
A: false (0)

Q: Lab log: compare recorded EC50 with 0.08 µM; is it strictly lower for [O-][n+]1c(-c2ccc(Br)nc2)nc2ccccn21 ?
A: false (0)

###

EXPERIMENT SUMMARY: n-Octanol/water partition coefficient, logD of the compound at 1 mg incubated for 48 hrs under shaking condition by LC/MS analysis
Type: physicochemical
List of logD at 48 h values.
Please state the value as a number alone, without comment.

MOL SMILES: Brc1ccc(-c2nc3ccc(Br)cn3n2)cc1
READOUT TYPE: logD at 48 h
ASSAY VALUE: 2.97

Moving on to the next molecule.
Q: Which measured logD at 48 h value corresponds to [O-][n+]1c(-c2ccc(Br)cc2)nc2ccc(Br)cn21 ?
A: 2.59
